Origin of the recorded values: patent US20240058465A1

# maps each entry to its kon
target: T1, human ROR1 Frizzled domain (hROR1-Fz) (human, UniProt Q01973 165-305)
T1 construct: Acro Biosystems, made in HEK293
T1 sequence (Q01973 other isoform, or with tags, fused parts or gaps): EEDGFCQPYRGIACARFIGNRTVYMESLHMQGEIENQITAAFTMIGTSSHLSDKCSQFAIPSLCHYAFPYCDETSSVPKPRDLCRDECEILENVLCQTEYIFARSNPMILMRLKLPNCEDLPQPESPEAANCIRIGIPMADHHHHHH
method-summary: SPR Biacore, IgG on anti-Fc, ROR1-Fz analyte
observation-type: kon (M⁻¹ s⁻¹)

[[record]]
binder = "SRP2196-B08 (antibody, V domains shown, His/FLAG-tagged IgG1) VH: EVQLVESGGGLVQPGGSLRLSCAASGFNITGYYIHWVRQAPGKGLEWVGQISPNSGYTYLADSVKGRFTISADTSKNTAYLQMNSLRAEDTAVYYCARDSRRYVRGWDYWGQGTLVTVSS VL: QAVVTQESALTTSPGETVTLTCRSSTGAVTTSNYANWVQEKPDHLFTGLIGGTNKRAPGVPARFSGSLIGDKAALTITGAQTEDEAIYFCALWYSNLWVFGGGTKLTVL"
units_of_measure = "M⁻¹ s⁻¹"
measured_number = 156000

[[record]]
binder = "SRP2196-C03 (antibody, V domains shown, His/FLAG-tagged IgG1) VH: EVQLVESGGGLVQPGGSLRLSCAASGFNITGYYIHWVRQAPGKGLEWVGQISPNSGSTYSADSVKGRFTISADTSKNTAYLQMSSLRAEDTAVYYCARDSRRYVLSWDYWGQGTLVTVSS VL: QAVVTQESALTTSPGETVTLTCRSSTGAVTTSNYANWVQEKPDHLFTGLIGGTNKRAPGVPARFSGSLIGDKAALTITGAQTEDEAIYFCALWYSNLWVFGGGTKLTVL"
units_of_measure = "M⁻¹ s⁻¹"
measured_number = 143000

[[record]]
binder = "SRP2196-B09 (antibody, V domains shown, His/FLAG-tagged IgG1; also called Antibody 160) VH: EVQLVESGGGLVQPEGSLRLSCAASGFNITEYYIHWVRQAPGKGLEWVGYISPNSGSTYYADSVKGRFTISADTSKNTAYLQMNSLRAEDTAVYYCARDSRRYVRSWDYWGQGTLVTVSS VL: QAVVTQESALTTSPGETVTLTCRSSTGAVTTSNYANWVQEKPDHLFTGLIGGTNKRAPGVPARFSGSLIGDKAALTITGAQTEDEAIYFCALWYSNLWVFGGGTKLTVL"
units_of_measure = "M⁻¹ s⁻¹"
measured_number = 130000

